Target: CCR-3 (Homo sapiens)
Sequence (P51677 whole entry): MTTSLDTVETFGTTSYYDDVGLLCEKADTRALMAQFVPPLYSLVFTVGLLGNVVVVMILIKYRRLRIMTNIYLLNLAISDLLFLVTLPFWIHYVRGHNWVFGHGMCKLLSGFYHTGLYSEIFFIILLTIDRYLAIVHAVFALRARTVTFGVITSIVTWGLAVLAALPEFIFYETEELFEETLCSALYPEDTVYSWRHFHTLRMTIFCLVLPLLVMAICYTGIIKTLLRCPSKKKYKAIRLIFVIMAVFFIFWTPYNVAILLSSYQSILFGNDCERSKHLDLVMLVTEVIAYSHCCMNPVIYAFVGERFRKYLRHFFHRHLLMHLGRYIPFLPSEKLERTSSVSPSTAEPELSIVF
Experiment: Inhibition of eotaxin-induced chemotaxis of CCR-3 transfectant cells (CCR3/U937)
Type: cell-based
Set-up: expressed in transfected cells; host or cells: U937
Details: compound 10 μM, eotaxin 1×10^−9 M, Table 3a
Experimental Endpoint: Chemotaxis Assay 10 μM (inhibition %)

Solved cases below.
>  <Molecule>
O=C(O)CCCN(CCCNC(=S)Nc1ccc(Cl)c(Cl)c1)C1CCCc2ccccc21 (stereo not shown)

>  <Assay Target>
CCR-3 (Homo sapiens)

>  <Chemotaxis Assay 10 μM (inhibition %)>
100

$$$$
>  <Molecule>
Cc1ccc(NC(=S)NCCCN(CCCC(=O)O)C2CCCc3ccccc32)cc1 (stereo not shown)

>  <Assay Target>
CCR-3 (Homo sapiens)

>  <Chemotaxis Assay 10 μM (inhibition %)>
99

$$$$

P = CCN(CCNC(=O)Nc1ccc([N+](=O)[O-])cc1)CCc1ccc(Cl)cc1
Q = CCN(CCCNC(=O)Nc1ccccc1OC)CCc1ccc(Cl)cc1
Q: Of P versus Q , which is the one with smaller reported Chemotaxis Assay 10 μM (inhibition %)? Indicate which entry you chose by stating its label.
Ans: P
(P: 59%, Q: 100%)
